# Assayed Target: iPHF (human, UniProt P10636)
# Sequence (P10636 2-758): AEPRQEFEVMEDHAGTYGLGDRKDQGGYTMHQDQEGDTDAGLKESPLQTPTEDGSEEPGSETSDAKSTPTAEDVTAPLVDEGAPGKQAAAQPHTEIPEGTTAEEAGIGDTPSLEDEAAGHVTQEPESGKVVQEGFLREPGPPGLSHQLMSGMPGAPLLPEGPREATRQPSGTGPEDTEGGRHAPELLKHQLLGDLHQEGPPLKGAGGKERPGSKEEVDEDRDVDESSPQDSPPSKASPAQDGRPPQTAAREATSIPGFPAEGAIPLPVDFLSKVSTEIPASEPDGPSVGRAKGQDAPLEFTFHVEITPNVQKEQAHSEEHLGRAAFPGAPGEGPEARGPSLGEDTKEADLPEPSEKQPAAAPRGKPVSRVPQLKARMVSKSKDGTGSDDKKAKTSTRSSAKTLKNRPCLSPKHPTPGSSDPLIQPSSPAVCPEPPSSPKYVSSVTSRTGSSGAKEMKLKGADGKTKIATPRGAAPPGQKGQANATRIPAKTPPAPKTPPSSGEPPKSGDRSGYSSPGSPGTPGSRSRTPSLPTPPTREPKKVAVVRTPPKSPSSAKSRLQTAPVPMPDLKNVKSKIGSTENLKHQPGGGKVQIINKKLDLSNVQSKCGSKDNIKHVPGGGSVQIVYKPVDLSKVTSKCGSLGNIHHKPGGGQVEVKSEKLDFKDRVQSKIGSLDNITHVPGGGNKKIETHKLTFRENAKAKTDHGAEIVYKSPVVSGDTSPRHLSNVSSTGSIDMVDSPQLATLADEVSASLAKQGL
# Assay Summary: BLI
Property Name: pKd
// pKd: -log10(molar conc.)

Recorded pKd, per entry:
>  <Binder>
V0024 (antibody, V domains shown, immunopurified paired helical filament tau, hyperphosphorylated) VH: QVQLQQPGTELVKPGASVKLSCKASGYTFTRFWMHWVKQRPGQGLEWIGNINPNNGGTDNNERFKSKATLTVDRSSSTAYMQLSSLTSEDSAVYYCARGTGTGAMDYWGQGTSVTVSS VL: DVVMTQTPLSLPVSLGDQASISCRSSQSLVHSNGNTHLYWYLQKPGQSPKLLIYRVSSRFSGVPDRFSGSGSGTDFTLKISRVEAEDLGVYFCFQGTHVPRTFGGGTKLEIK

>  <pKd>
8.55

$$$$
>  <Binder>
V0004 (antibody, V domains shown, immunopurified paired helical filament tau, hyperphosphorylated) VH: QVQLQQPGAELVKPGASVKLSCKASDYTFTNYWMHWVKQRPGRGLEWIGRIDPNSGGTRYNEKFKNKATLTVDKPSSTAYMHLSSLTSEDSAVYYCAGDFDVWGTGTTVTVSS VL: DIQMTQSPASLSASVGETVTITCRASGNIHNYLAWYQQRQGKSPQLLVYNAKTLPDGVPSRFSGSGSGTQYSLKINSLQPEDFGSYCCQHFWSTPLTFGAGTKLELK

>  <pKd>
7.70

$$$$
>  <Binder>
V0023 (antibody, V domains shown, immunopurified paired helical filament tau, hyperphosphorylated) VH: QVQLQQPGTELVKPGASVKLSCKASGYTFTIFWMHWVKQRPGHGLEWIGKINPNNGGGDYNEKFKSKATLTVDKSSTTAYLQLSSLTSEDSAVYYCARGTGTGAMDYWGQGTSVTVSS VL: DVVMTQTPLSLPVSLGDHASISCRSSQSLVHSNGITHLYWYLQRPGQTPKLLIYRVSNRFSGVPDRFSGSGSGTDFTLKISSVEAEDLGVYFCFQGTHVPRTFGGGTKLEIE

>  <pKd>
8.40

$$$$

Moving on to the next binder.
Item under review: V0022 (antibody, V domains shown, immunopurified paired helical filament tau, hyperphosphorylated) VH: QVQLQQPGTELVKPGSSVNLSCKASGFTFTRYWMHWVKERPGHGLEWIGNINPNNGGTDFNEKFKNKATLTVHKSSTTVFIQLSSLTSEDSAVYYCARGTGTGAMDYWGQGTSVTVSS VL: DVVMTQTPLSLPVSLGDQASISCRSSQSLVHNNGITYLYWYLQKPGQSPKLLIYRVSNRFSGVPDRFGGSGSGTDFTLKISRVEAEDLGVYFCFQGTHVPRTFGGGTKLEIK . Reported pKd?
9.52
